System: HARA (human lung squamous cell carcinoma) cells
protocol_notes: Cell proliferation assay (CellTiter-Glo), HARA
Assay type: cell-based
experimental_context: Homo sapiens, 144 h; 6 days, CellTiter-Glo; read-out: HARA GI50
Consider the following molecules; for each one, report its GI50.

Completed entries (count: 3):
CC#Cc1ccc2c(=O)[nH]nc(CNC(C)CC(=O)N3CCN(c4ncc(C(F)(F)F)cn4)CC3)c2c1 (stereo not shown)
1 to 5 µM
N#Cc1ccc(N2CCN(C(=O)c3cc(Cc4n[nH]c(=O)c5ccc(S(=O)(=O)C6CCC6)cc45)ccc3F)CC2)nc1
> 5 µM
O=C(c1cc(Cc2n[nH]c(=O)c3ccc(OC4CCC4)cc23)ccc1F)N1CCCN(c2ncc(C(F)(F)F)cn2)CC1
> 5 µM

# context switch: different molecule, same GI50
Exercise: May I ask what GI50 has been recorded for `N#Cc1ccc(N2CC3(CN(C(=O)c4cc(Cc5n[nH]c(=O)c6ccc(OC7CCC7)cc56)ccc4F)C3)C2)nc1` ?
Solution: > 5 µM

Where these numbers come from: patent US20260055079A1
